Test: Half life in ICR mouse at 20 mg/kg,iv administration measured upto 6 hrs by LC-MS/MS analysis
Format: ADME, organism-based
Conditions: in vivo
Result Type: log10 half-life (log10 of the value in min)
Form field - Quantity: half-life; Unit: min; Scale: log10

Which value of log10 half-life has been reported for Nc1nc(/C(=N/OC(C(=O)O)C2CCC(F)(F)CC2)C(=O)N[C@@H]2C(=O)N3C(C(=O)O)=C(CSCCNC(=O)c4ccc(O)c(O)c4Cl)CS[C@H]23)c(Br)s1.O=C(O)C(F)(F)F (stereo partly specified) in the records?
2.30

For CC(C)(O/N=C(\C(=O)N[C@@H]1C(=O)N2C(C(=O)[O-])=C(C[N+]3(CCNC(=O)c4ccc(O)c(O)c4Cl)CCCC3)CS[C@H]12)c1csc(N)n1)C(=O)[O-].[Na+] then?
1.21

For C[C@@](O/N=C(\C(=O)N[C@@H]1C(=O)N2C(C(=O)O)=C(CSCCNC(=O)c3ccc(O)c(O)c3Cl)CS[C@H]12)c1nc(N)sc1Cl)(C(=O)O)C(F)(F)F.O=C(O)C(F)(F)F then?
1.26

For CC(C)(O/N=C(\C(=O)N[C@@H]1C(=O)N2C(C(=O)[O-])=C(C[N+]3(CCNC(=O)c4ccc(O)c(O)c4Cl)CCCC3)CS[C@H]12)c1csc(N)n1)C(=O)O.O=C(O)C(F)(F)F then?
1.52

For Nc1nc(/C(=N/OC(C(=O)O)C2CCC(F)(F)CC2)C(=O)N[C@@H]2C(=O)N3C(C(=O)O)=C(CSCCNC(=O)c4ccc(O)c(O)c4Cl)CS[C@H]23)c(Cl)s1.O=C(O)C(F)(F)F (stereo partly specified) then?
1.31

For Cc1ccc(S(=O)(=O)O)cc1.Nc1nc(/C(=N/OC(C(=O)O)C2CCC(F)(F)CC2)C(=O)N[C@@H]2C(=O)N3C(C(=O)O)=C(CSCCNC(=O)c4ccc(O)c(O)c4Cl)CS[C@H]23)cs1 (stereo partly specified) then?
1.65

For Nc1nc(/C(=N/OC(C(=O)O)C2CCCCC2)C(=O)N[C@@H]2C(=O)N3C(C(=O)O)=C(CSCCNC(=O)c4ccc(O)c(O)c4Cl)CS[C@H]23)cs1.O=C(O)C(F)(F)F (stereo partly specified) then?
1.62

For CC(C)(C)C1CCC(C(O/N=C(\C(=O)N[C@@H]2C(=O)N3C(C(=O)O)=C(CSCCNC(=O)c4ccc(O)c(O)c4Cl)CS[C@H]23)c2csc(N)n2)C(=O)O)CC1.O=C(O)C(F)(F)F (stereo partly specified) then?
2.48

For Cl.Nc1nc(/C(=N/OC(C(=O)O)C2CCC(F)(F)CC2)C(=O)N[C@@H]2C(=O)N3C(C(=O)O)=C(CSCCNC(=O)c4ccc(O)c(O)c4Cl)CS[C@H]23)cs1 (stereo partly specified) then?
1.67

For Nc1nc(/C(=N/OC(C(=O)O)C2CCC(F)(F)CC2)C(=O)N[C@@H]2C(=O)N3C(C(=O)O)=C(CSCCNC(=O)c4ccc(O)c(O)c4Cl)CS[C@H]23)cs1.O=C(O)C(F)(F)F (stereo partly specified) then?
2.27

For CC1CCC(C(O/N=C(\C(=O)N[C@@H]2C(=O)N3C(C(=O)O)=C(CSCCNC(=O)c4ccc(O)c(O)c4Cl)CS[C@H]23)c2csc(N)n2)C(=O)O)CC1.O=C(O)C(F)(F)F (stereo partly specified) then?
2.14

###

For each entry below, report its MIC value.
Test system: Pseudomonas aeruginosa
Assay: Antibacterial activity against IMP-4 producing multidrug-resistant Pseudomonas aeruginosa clinical isolate 15-4 assessed as inhibition of bacterial growth incubated for 18 to 20 hrs by two fold serial dilution assay
Assay type: functional
Details: time 18-20 hrs
Quick reminder: number only, in µg/mL, skip the unit.

Which value of MIC has been reported for CC(C)(O/N=C(\C(=O)N[C@@H]1C(=O)N2C(C(=O)O)=C(CS[C@H]3CC[C@@H](NC(=O)c4ccc(O)c(O)c4Cl)CC3)CS[C@H]12)c1csc(N)n1)C(=O)O.O=C(O)C(F)(F)F in the records?
1

For CC(C)(C)C(O/N=C(\C(=O)N[C@@H]1C(=O)N2C(C(=O)O)=C(CS[C@H]3CC[C@@H](NC(=O)c4ccc(O)c(O)c4Cl)CC3)CS[C@H]12)c1csc(N)n1)C(=O)O.O=C(O)C(F)(F)F (stereo not given in full) then?
16

For CC(C)C(O/N=C(\C(=O)N[C@@H]1C(=O)N2C(C(=O)O)=C(CS[C@H]3CC[C@@H](NC(=O)c4ccc(O)c(O)c4Cl)CC3)CS[C@H]12)c1csc(N)n1)C(=O)O.O=C(O)C(F)(F)F (stereo not given in full) then?
2

For Nc1nc(/C(=N/OC2(C(=O)O)CC2)C(=O)N[C@@H]2C(=O)N3C(C(=O)O)=C(CSCCNC(=O)c4ccc(O)c(O)c4Cl)CS[C@H]23)cs1.O=C(O)C(F)(F)F then?
1

For CC(C)(C)C(O/N=C(\C(=O)N[C@@H]1C(=O)N2C(C(=O)O)=C(CSCCNC(=O)c3ccc(O)c(O)c3Cl)CS[C@H]12)c1csc(N)n1)C(=O)O.O=C(O)C(F)(F)F (stereo not given in full) then?
8

###

Assay: Plasma protein binding in mouse incubated for 35 mins by LC-MS/MS analysis
Format: ADME, cell-free
Conditions: read-out: PPB (converted)
The label TRUE is reserved for fraction unbound at 35 min strictly under 0.1; FALSE covers values equal to or above it.

Below 0.1 on fraction unbound at 35 min? Entry CC(C)(O/N=C(\C(=O)N[C@@H]1C(=O)N2C(C(=O)[O-])=C(C[N+]3(CCNC(=O)c4ccc(O)c(O)c4Cl)CCCC3)CS[C@H]12)c1csc(N)n1)C(=O)O [CEFIDEROCOL]
FALSE

For Nc1nc(/C(=N/OC(C(=O)O)C2CCC(F)(F)CC2)C(=O)N[C@@H]2C(=O)N3C(C(=O)O)=C(CSCCNC(=O)c4ccc(O)c(O)c4Cl)CS[C@H]23)c(Cl)s1.O=C(O)C(F)(F)F (stereo not given in full) then?
TRUE

For Nc1nc(/C(=N/O[C@@H](C(=O)O)C2CCC(F)(F)CC2)C(=O)N[C@@H]2C(=O)N3C(C(=O)O)=C(CSCCNC(=O)c4ccc(O)c(O)c4Cl)CS[C@H]23)cs1.O=C(O)C(F)(F)F then?
FALSE

For C[C@@](O/N=C(\C(=O)N[C@@H]1C(=O)N2C(C(=O)O)=C(CSCCNC(=O)c3ccc(O)c(O)c3Cl)CS[C@H]12)c1nc(N)sc1Cl)(C(=O)O)C(F)(F)F.O=C(O)C(F)(F)F then?
TRUE

For Nc1nc(/C(=N/OC(C(=O)O)C2CCC(C(F)(F)F)CC2)C(=O)N[C@@H]2C(=O)N3C(C(=O)O)=C(CSCCNC(=O)c4ccc(O)c(O)c4Cl)CS[C@H]23)cs1.O=C(O)C(F)(F)F (stereo not given in full) then?
TRUE

###

System: Acinetobacter baumannii
Assay: Antibacterial activity against OXA-23 producing multidrug-resistant Acinetobacter baumannii clinical isolate 15-4 assessed as inhibition of bacterial growth incubated for 18 to 20 hrs by two fold serial dilution assay
Format: functional
Conditions: time 18-20 hrs
Result Type: MIC (µg/mL)
Quick reminder: number only, in µg/mL, skip the unit.

Which value of MIC has been reported for CC(C)C(O/N=C(\C(=O)N[C@@H]1C(=O)N2C(C(=O)O)=C(CS[C@H]3CC[C@@H](NC(=O)c4ccc(O)c(O)c4Cl)CC3)CS[C@H]12)c1csc(N)n1)C(=O)O.O=C(O)C(F)(F)F (stereo partly drawn) in the records?
16

For C[C@@H](O)[C@H]1C(=O)N2C(C(=O)O)=C(S[C@@H]3CN[C@H](C(=O)N(C)C)C3)[C@H](C)[C@H]12 then?
32

For Nc1nc(/C(=N/OC(C(=O)O)C2CC2)C(=O)N[C@@H]2C(=O)N3C(C(=O)O)=C(CSCCNC(=O)c4ccc(O)c(O)c4Cl)CS[C@H]23)cs1.O=C(O)C(F)(F)F (stereo partly drawn) then?
64

###

Assay: AUC (0 to infinity) in Sprague-Dawley rat at 5 mg/kg,iv administration measured upto 4 hrs by LC-MS/MS analysis
Type: ADME, organism-based
Conditions: in vivo
Result Type: AUC(0-inf) (ng·h/mL)
Quick reminder: number only, in ng·h/mL, skip the unit.

Which value of AUC(0-inf) has been reported for Nc1nc(/C(=N/O[C@@H](C(=O)[O-])C2CCC(F)(F)CC2)C(=O)N[C@@H]2C(=O)N3C(C(=O)O)=C(CSCCNC(=O)c4ccc(O)c(O)c4Cl)CS[C@H]23)cs1.[Na+] in the records?
2260

###

Test system: Klebsiella pneumoniae
Assay: Antibacterial activity against KPC-2 producing multidrug-resistant Klebsiella pneumoniae clinical isolate 15-5 assessed as inhibition of bacterial growth incubated for 18 to 20 hrs by two fold serial dilution assay
Assay type: functional
Conditions: time 18-20 hrs
Result Type: MIC (µg/mL)
Quick reminder: number only, in µg/mL, skip the unit.

Which value of MIC has been reported for Nc1nc(/C(=N/OC(C(=O)O)C2CCCCC2)C(=O)N[C@@H]2C(=O)N3C(C(=O)O)=C(CSCCNC(=O)c4ccc(O)c(O)c4Cl)CS[C@H]23)c(Br)s1.O=C(O)C(F)(F)F (stereo not given in full) in the records?
1

For Nc1nc(/C(=N/OC(C(=O)O)C2CCC(F)(F)CC2)C(=O)N[C@@H]2C(=O)N3C(C(=O)O)=C(CSCCNC(=O)c4ccc(O)c(O)c4Cl)CS[C@H]23)c(Cl)s1.O=C(O)C(F)(F)F (stereo not given in full) then?
1

For Nc1nc(/C(=N/OC(C(=O)O)C2CCCC2)C(=O)N[C@@H]2C(=O)N3C(C(=O)O)=C(CSCCNC(=O)c4ccc(O)c(O)c4Cl)CS[C@H]23)cs1.O=C(O)C(F)(F)F (stereo not given in full) then?
2

For Nc1nc(/C(=N/OC(C(=O)O)C2CCSCC2)C(=O)N[C@@H]2C(=O)N3C(C(=O)O)=C(CSCCNC(=O)c4ccc(O)c(O)c4Cl)CS[C@H]23)cs1.O=C(O)C(F)(F)F (stereo not given in full) then?
8

For C[C@](O/N=C(\C(=O)N[C@@H]1C(=O)N2C(C(=O)O)=C(CSCCNC(=O)c3ccc(O)c(O)c3Cl)CS[C@H]12)c1nc(N)sc1Cl)(C(=O)O)C(F)(F)F.O=C(O)C(F)(F)F then?
0.125
